Just for reference, patent US10869931B2 is where these values come from.

Tested on: choroidal neovascularization in BN rats
assay.remarks: Laser-induced choroidal neovascularization in BN rats (FFA)
Assay type: in vivo, rat
condition.set: Day 3 after administration; 50 μg intravitreally once daily for 1 week (Table 53); total spots 290-296 by table
Where no end group is shown, it is not given here.
For each entry below, report its leakage Spots # value.
One number for each entry.

Past entries and their recorded results:
mPEG-SC10k-Arg-Gly-Ala-Asp-Arg-Ala-Gly-Gly-Gly-Gly-Arg-Gly-Asp ({mPEG‑SC 10 kDa}-RGADRAGGGGRGD) [mPEG-SC10k-HM-1] | 147
mPEG2-NHS10k-Arg-Gly-Ala-Asp-Arg-Ala-Gly-Gly-Gly-Gly-Arg-Gly-Asp ({mPEG2‑NHS 10 kDa}-RGADRAGGGGRGD) [mPEG2-NHS10k-HM-1] | 148
mPEG-ALD10k-Arg-Gly-Ala-Asp-Arg-Ala-Gly-Gly-Gly-Gly-Arg-Gly-Asp ({mPEG‑ALD 10 kDa}-RGADRAGGGGRGD) [mPEG-ALD10k-HM-1] | 141

Query substance follows.
So what's the measured leakage Spots # for this one? mPEG-bALD10k-Arg-Gly-Ala-Asp-Arg-Ala-Gly-Gly-Gly-Gly-Arg-Gly-Asp ({mPEG‑bALD 10 kDa}-RGADRAGGGGRGD) [mPEG-bALD10k-HM-1]
142
